target: Tyrosine-protein kinase JAK2 (Homo sapiens) (UniProt O60674); details: at 0.1 µM;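 also: mean percent inhibition of JAK2 activity, from the GSK PKIS kinase panel screen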
Sequence (O60674 whole entry): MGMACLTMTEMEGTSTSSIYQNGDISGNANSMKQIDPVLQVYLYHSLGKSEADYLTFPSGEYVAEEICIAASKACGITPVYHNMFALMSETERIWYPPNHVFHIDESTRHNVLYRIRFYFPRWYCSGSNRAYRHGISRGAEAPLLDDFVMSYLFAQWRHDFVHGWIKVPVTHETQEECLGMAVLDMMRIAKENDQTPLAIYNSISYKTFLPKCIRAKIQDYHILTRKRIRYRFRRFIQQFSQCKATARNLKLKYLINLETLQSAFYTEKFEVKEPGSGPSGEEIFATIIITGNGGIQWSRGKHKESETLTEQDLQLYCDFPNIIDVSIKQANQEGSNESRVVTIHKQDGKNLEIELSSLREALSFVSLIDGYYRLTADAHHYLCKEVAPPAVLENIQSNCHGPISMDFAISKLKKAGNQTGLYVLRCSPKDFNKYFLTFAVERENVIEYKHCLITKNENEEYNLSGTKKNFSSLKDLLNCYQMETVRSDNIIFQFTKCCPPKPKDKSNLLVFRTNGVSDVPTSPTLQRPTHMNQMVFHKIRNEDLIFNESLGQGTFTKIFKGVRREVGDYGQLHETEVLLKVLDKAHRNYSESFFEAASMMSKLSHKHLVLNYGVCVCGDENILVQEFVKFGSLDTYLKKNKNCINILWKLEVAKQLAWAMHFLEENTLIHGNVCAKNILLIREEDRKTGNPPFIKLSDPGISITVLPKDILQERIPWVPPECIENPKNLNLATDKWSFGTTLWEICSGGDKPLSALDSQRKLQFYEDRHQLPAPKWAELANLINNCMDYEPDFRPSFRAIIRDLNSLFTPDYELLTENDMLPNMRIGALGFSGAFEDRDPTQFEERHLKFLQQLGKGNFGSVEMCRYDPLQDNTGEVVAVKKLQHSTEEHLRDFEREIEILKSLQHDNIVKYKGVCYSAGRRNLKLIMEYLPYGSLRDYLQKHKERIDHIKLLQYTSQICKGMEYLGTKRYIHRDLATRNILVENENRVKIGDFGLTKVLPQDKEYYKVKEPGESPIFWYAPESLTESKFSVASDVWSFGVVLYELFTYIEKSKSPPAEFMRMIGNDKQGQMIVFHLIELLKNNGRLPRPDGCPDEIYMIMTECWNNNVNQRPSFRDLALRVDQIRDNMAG
measurement.name: inhibition (%)
Give bare numbers, in %.

Some solved cases for reference:
Nc1nc(-c2ccc3c(c2)C(=Cc2cc(Br)c(O)c(Br)c2)C(=O)N3)cs1 : -0.72
COc1ccc(-c2nn3ncccc3c2-c2ccnc(Nc3ccc(Cl)c(C(F)(F)F)c3)n2)cc1 : -0.46
CN(C)c1cc2c(Nc3ccc4nc(Cc5ccccc5)[nH]c4c3)ncnc2cn1 : 2.34
COc1cc2ncn(-c3cc(OCc4ccccc4Cl)c(C(N)=O)s3)c2cc1OC : 0.18

Could you now look at the following compound, please?
Recorded inhibition for COc1ccccc1Nc1ncc(-c2ccccc2)o1 with Tyrosine-protein kinase JAK2 (Homo sapiens) (UniProt O60674), please? 0.56
